- Tested on: Staphylococcus aureus
- assay-text: Antibacterial activity against methicillin-resistant Staphylococcus aureus 86 assessed as bacterial growth inhibition in presence of 50 ug/ml calcium ions by CLSI protocol based broth microdilution method
- Assay type: functional
Reported MIC values for the following compounds.

In the examples that follow, each entry is paired with its recorded MIC.
smiles-input: CCCCCCCCCC(=O)N[C@@H](Cc1c[nH]c2ccccc12)C(=O)N[C@@H](CC(N)=O)C(=O)N[C@@H](CC(=O)O)C(=O)N[C@@H]1C(=O)NCC(=O)N[C@@H](CC(C)C)C(=O)N[C@@H](CC(=O)O)C(=O)N[C@H](C)C(=O)N[C@@H](CC(=O)O)C(=O)NCC(=O)N[C@H](CO)C(=O)N[C@@H]([C@@H](C)CC(=O)O)C(=O)N[C@@H](CC(=O)c2ccccc2N)C(=O)O[C@@H]1C
test-result: 4 µg/mL
//
smiles-input: CCCCCCCCCC(=O)N[C@@H](Cc1c[nH]c2ccccc12)C(=O)N[C@@H](CC(N)=O)C(=O)N[C@@H](CC(=O)O)C(=O)N[C@@H]1C(=O)NCC(=O)N[C@@H](CCC(N)=O)C(=O)N[C@@H](CC(=O)O)C(=O)N[C@H](C)C(=O)N[C@@H](CC(=O)O)C(=O)NCC(=O)N[C@H](CO)C(=O)N[C@@H]([C@@H](C)CC(=O)O)C(=O)N[C@@H](CC(=O)c2ccccc2N)C(=O)O[C@@H]1C
test-result: 4 µg/mL
//
smiles-input: CCCCCCCCCC(=O)N[C@@H](Cc1c[nH]c2ccccc12)C(=O)N[C@@H](CC(N)=O)C(=O)N[C@@H](CC(=O)O)C(=O)N[C@@H]1C(=O)NCC(=O)N[C@@H](CCC(=O)O)C(=O)N[C@@H](CC(=O)O)C(=O)N[C@H](C)C(=O)N[C@@H](CC(=O)O)C(=O)NCC(=O)N[C@H](CO)C(=O)N[C@@H]([C@@H](C)CC(=O)O)C(=O)N[C@@H](CC(=O)c2ccccc2N)C(=O)O[C@@H]1C
test-result: ≥ 32 µg/mL
//
smiles-input: CCCCCCCCCC(=O)N[C@@H](Cc1c[nH]c2ccccc12)C(=O)N[C@@H](CC(N)=O)C(=O)N[C@@H](CC(=O)O)C(=O)N[C@@H]1C(=O)NCC(=O)N[C@@H](CCCN)C(=O)N[C@@H](CC(=O)O)C(=O)N[C@H](C)C(=O)N[C@@H](CC(=O)O)C(=O)NCC(=O)N[C@H](CO)C(=O)N[C@@H](C)C(=O)N[C@@H](CC(=O)c2ccccc2N)C(=O)O[C@@H]1C
test-result: ≥ 64 µg/mL
//
smiles-input: CCCCCCCCCC(=O)N[C@@H](Cc1c[nH]c2ccccc12)C(=O)N[C@@H](CC(N)=O)C(=O)N[C@@H](CC(=O)O)C(=O)N[C@@H]1C(=O)NCC(=O)N[C@@H](CCCN)C(=O)N[C@@H](CC(=O)O)C(=O)N[C@H](C)C(=O)N[C@@H](C)C(=O)NCC(=O)N[C@H](CO)C(=O)N[C@@H]([C@@H](C)CC(=O)O)C(=O)N[C@@H](CC(=O)c2ccccc2N)C(=O)O[C@@H]1C
test-result: ≥ 64 µg/mL

Give me measured MIC, please, for this compound: CCCCCCCCCC(=O)N[C@@H](Cc1c[nH]c2ccccc12)C(=O)N[C@@H](CC(N)=O)C(=O)N[C@@H](CC(=O)O)C(=O)N[C@@H]1C(=O)NCC(=O)N[C@@H](C(C)C)C(=O)N[C@@H](CC(=O)O)C(=O)N[C@H](C)C(=O)N[C@@H](CC(=O)O)C(=O)NCC(=O)N[C@H](CO)C(=O)N[C@@H]([C@@H](C)CC(=O)O)C(=O)N[C@@H](CC(=O)c2ccccc2N)C(=O)O[C@@H]1C
8 µg/mL
